Data provenance: the supplement of paper PMC13380429

# Test system: Calu-3
# measurement_notes: cell viability relative to DMSO; higher = less toxic
# measurement_context: 72 h; 10 nM
experimental_readout: cell viability (%)
Give bare numbers, in %.

As a guide, the following entries are already answered.
[
  {
    "compound": "CC(C)c1ccccc1Cc1cc(C(=O)Nc2ccc(S(=O)(=O)c3ccccc3C(C)(C)C)cc2)c(O)c(O)c1O [TW-37]",
    "system_tested": "Calu-3",
    "cell viability / %": 98.1
  },
  {
    "compound": "Nc1ncnc2c1ncn2[C@@H]1O[C@H](CO)[C@@H](O)[C@H]1O [adenosine]",
    "system_tested": "Calu-3",
    "cell viability / %": 88.4
  },
  {
    "compound": "C[C@@H]1O[C@@H](O[C@H]2[C@H](Oc3cc(O)c4c(c3)O[C@H](c3ccc(O)cc3)CC4=O)O[C@H](CO)[C@@H](O)[C@@H]2O)[C@H](O)[C@H](O)[C@H]1O [Naringin (Naringoside)]",
    "system_tested": "Calu-3",
    "cell viability / %": 96.9
  },
  {
    "compound": "OC[C@H]1O[C@@H](c2ccc(F)c(Cc3cc4ccccc4s3)c2)[C@H](O)[C@@H](O)[C@@H]1O [ipragliflozin-L-proline]",
    "system_tested": "Calu-3",
    "cell viability / %": 108
  },
  {
    "compound": "NCC(=O)N1C[C@H](NC(=O)c2ccccc2)C[C@H]1C(=O)O [danegaptide]",
    "system_tested": "Calu-3",
    "cell viability / %": 93.3
  },
  {
    "compound": "O=C(O)CNC(=O)c1ccccc1I [2-iodohippuric-acid]",
    "system_tested": "Calu-3",
    "cell viability / %": 106
  }
]

// for each compound below, give its cell viability
1. CCOC(=O)c1c(O)nc2cccc3c2c1-c1ccccc1C3=O [NQDI-1]
2. O=C(NCc1ccc2c(c1)OCO2)c1c(Cl)cccc1Cl [alda-1]
3. COc1ccc(C(=O)/C(Cc2cc(OC)c(OC)c(OC)c2)=C(\C(=O)O)c2ccc3c(c2)OCO3)cc1

1. 96.8
2. 100
3. 87.6

----------
# Test system: Vero E6
# measurement_notes: cell viability relative to DMSO; higher = less toxic
# measurement_context: 72 h; 10000 nM
Hi there, I'd appreciate the recorded cell viability for every entry that follows.
Give bare numbers, in %.

Previously resolved entries follow.
[
  {
    "molecule": "O=C(CC(c1ccccc1)c1ccccc1)N1CCN(C(c2ccccc2)c2ccccc2)CC1",
    "experimental_readout": "cell viability",
    "value_measured": 100
  },
  {
    "molecule": "O=C(O)c1cc2cccc([N+](=O)[O-])c2[nH]1",
    "experimental_readout": "cell viability",
    "value_measured": 110
  },
  {
    "molecule": "NC(=O)c1cccc(-c2cc(Nc3ccc(OC(F)(F)F)cc3)ncn2)c1",
    "experimental_readout": "cell viability",
    "value_measured": 102
  },
  {
    "molecule": "CCCNC(C)C(=O)Nc1ccccc1C (configuration not stated)",
    "experimental_readout": "cell viability",
    "value_measured": 96.9
  },
  {
    "molecule": "COC1=C2C[C@@H](C)C[C@H](OC)[C@H](O)[C@@H](C)/C=C(\\C)[C@H](OC(N)=O)[C@@H](OC)/C=C\\C=C(/C)C(=O)NC(=CC1=O)C2=O",
    "experimental_readout": "cell viability",
    "value_measured": 65.9
  },
  {
    "molecule": "C[C@@H]1COCCN1c1cc(=O)n2c(n1)N(Cc1cncc(Cl)c1)[C@H](C(F)(F)F)CC2",
    "experimental_readout": "cell viability",
    "value_measured": 63.8
  },
  {
    "molecule": "O=C(O)C(=O)Nc1cccc(-c2nnn[nH]2)c1",
    "experimental_readout": "cell viability",
    "value_measured": 97.4
  },
  {
    "molecule": "CC(=O)OCC(=O)[C@@]1(O)CC[C@H]2[C@@H]3CCC4=CC(=O)CC[C@]4(C)[C@H]3[C@@H](O)C[C@@]21C [hydrocortisone-acetate]",
    "experimental_readout": "cell viability",
    "value_measured": 101
  },
  {
    "molecule": "O=C(NC(NC(=S)Nc1ccc(F)c([N+](=O)[O-])c1)C(Cl)(Cl)Cl)C(c1ccccc1)c1ccccc1 (configuration not stated)",
    "experimental_readout": "cell viability",
    "value_measured": 20
  },
  {
    "molecule": "CCOCCn1c(N2CCCN(C)CC2)nc2ccccc21",
    "experimental_readout": "cell viability",
    "value_measured": 99.8
  }
]

Give measured cell viability for every item shown.
1. C[C@@H](NCCCc1cccc(C(F)(F)F)c1)c1cccc2ccccc12
2. C=CC(N)CCC(=O)O (configuration not stated)
3. CCCCCCCCCCCCCCCCOc1nc2ccc(C)cc2c(=O)o1
4. Cc1nc(-c2cccnc2)sc1C(=O)Nc1ccccc1-c1cn2c(CN3CCOCC3)csc2n1
5. Cc1cc(C)cc(NC(=O)Nc2ccc(OS(N)(=O)=O)cc2)c1

1. 82.2
2. 97.1
3. 105
4. 106
5. 96.6

Provide the reported cell viability of each entry below, same order.
1. CNC(=O)c1cc(COc2nnc(Nc3ccc(Cl)cc3)c3ccoc23)ccn1
2. c1nc2c(NC3CCCCC3)nc(Nc3ccc(N4CCOCC4)cc3)nc2[nH]1

102
58
